Values compiled from the supplement of paper PMC10567573.

B1: CCDC6 (parent)
chain: FTPPTSLTRAGMSYYNSPGLHVQH

Variants of: B1
ASSAY_PROTOCOL: protein stability index of a GFP-peptide fusion (GPS, HEK-293T) (PSI 1-6); higher = more stable;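 further: lentivirally expressed fusions sorted by FACS into six bins by GFP to DsRed ratio, PSI derived from sequencing read proportions per bin multiplied by bin number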
MEASUREMENT_CONDITIONS: c terminus: a fixed tail appended

RECORD_SEQUENCE: STPPTSLTRAGMSYYNSPGLHVQH [F1S]
protein stability index: 2.01

RECORD_SEQUENCE: FTPPTSLTVAGMSYYNSPGLHVQH [R9V]
protein stability index: 1.58

RECORD_SEQUENCE: FYPPTSLTRAGMSYYNSPGLHVQH [T2Y]
protein stability index: 1.69

RECORD_SEQUENCE: FTPPTSLTRAGMSYYNSPGLSVQH [H21S]
protein stability index: 2.13

RECORD_SEQUENCE: FTPPTSLTRAGYSYYNSPGLHVQH [M12Y]
protein stability index: 1.71

RECORD_SEQUENCE: FTPPTILTRAGMSYYNSPGLHVQH [S6I]
protein stability index: 2.2

RECORD_SEQUENCE: FTPPTSLTRAGMSYYFSPGLHVQH [N16F]
protein stability index: 1.33

RECORD_SEQUENCE: FTPPSSLTRAGMSYYNSPGLHVQH [T5S]
protein stability index: 1.84

RECORD_SEQUENCE: FTPPTSLTRAGMEYYNSPGLHVQH [S13E]
protein stability index: 1.9

RECORD_SEQUENCE: MTPPTSLTRAGMSYYNSPGLHVQH [F1M]
protein stability index: 3.01

RECORD_SEQUENCE: FTPPTSLERAGMSYYNSPGLHVQH [T8E]
protein stability index: 1.41
